# System: α-smooth muscle actin (aSMA) positive LL29 cells
# method-description: Inhibition of the fibrotic process: αSMA staining in TGF-β1 treated LL29 fibroblasts from IPF patients
# assay-setup: Homo sapiens, Fibroblast, 96 h
quantity-kind: pEC50
Kindly note that pEC50 refers to -log10 of the concentration in mol/L and answer with the value alone.

IN: Request the reported pEC50 associated with CN(C)CCNc1cc(C(=O)Nc2ncc3ccc(-c4cnn(C)c4)cc3n2)ccn1 [Compound 1071]
OUT: 5.16

IN: Return reported pEC50; argument: Cn1cc(-c2cc3cc(NC(=O)CCc4ccccc4)ncc3cn2)cn1 [Compound 3821]
OUT: 6.50

IN: Entry under review: O=C(Nc1ncc2ccc(-c3cccnc3)cc2n1)C1CC1 [Compound 1670] . Reported pEC50?
OUT: 5.31

IN: Reported pEC50 for Cn1cc(-c2cc3cc(NC(=O)C4CCN(CC5(C(F)(F)F)CC5)CC4)ncc3cn2)nn1 [Compound 3974] : what is it?
OUT: 5.69

IN: Would you kindly share the measured pEC50 for Cn1ncc(-c2ccc3cnc(NC(=O)c4ccnc(N5CCOCC5)c4)cc3n2)c1CN1CCOCC1 [Compound 314] ?
OUT: 6.00
